# system: human c-Met (Homo sapiens, UniProt P08581)
# Construct: Recombinant GST-tagged cytosolic domains of human c-Met; 6xHis
# Sequence (P08581 956-1390 limits assumed): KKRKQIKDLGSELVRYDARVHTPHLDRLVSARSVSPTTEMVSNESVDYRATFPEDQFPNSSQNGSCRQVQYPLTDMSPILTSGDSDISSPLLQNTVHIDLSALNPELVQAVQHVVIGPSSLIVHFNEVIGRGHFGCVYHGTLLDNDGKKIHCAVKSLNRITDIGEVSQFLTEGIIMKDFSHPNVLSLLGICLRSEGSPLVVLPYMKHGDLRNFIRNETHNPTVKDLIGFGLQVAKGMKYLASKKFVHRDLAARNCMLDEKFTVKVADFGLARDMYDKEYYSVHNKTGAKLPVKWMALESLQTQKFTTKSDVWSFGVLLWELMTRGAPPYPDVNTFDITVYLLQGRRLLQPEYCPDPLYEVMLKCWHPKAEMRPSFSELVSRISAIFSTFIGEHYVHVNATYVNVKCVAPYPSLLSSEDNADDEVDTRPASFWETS
# assay procedure: In vitro kinase assay (homogeneous time-resolved tyrosine kinase assay, HTRF) for c-Met
# measurement context: recombinant GST-tagged cytosolic domain of c-Met, 0.2 nM c-Met, 50 μM MgATP, 80 min at room temperature
pIC50: −log10 of the molar value.
measured quantity: pIC50

Task: Tell me the measured pIC50 of O=c1c2cc(-c3ccccc3)cnc2ccc2cccc(Br)c12 , please.
Result: ≥ 4.30

These measurements were taken from patent US7550478B2.
